Task for the reader: assign each of the following molecules its reported IC50.
Target: E3 ubiquitin-protein ligase CBL-B (Homo sapiens)
Experiment: Inhibition of CBL-B (unknown origin) by biochemical assay
Numeric only. Scale: µM

Any idea what IC50 was measured for CN(C)c1c2c(c3nc4ccccc4c4c3c1N=C4N1C(=O)c3c4c(nc5ccccc35)C3=C(C(=O)CCN3)C(=[N+](C)C)C41)NCCC2=O (stereo in doubt; (-)-8) ? 7.5

Any idea what IC50 was measured for "CN(C)c1c2c(c3nc4ccccc4c4c3c1N=C4)NCCC2=O" ? 167

Any idea what IC50 was measured for CN(C)c1c2c(c3nc4ccccc4c4c3c1N=C4N1C(=O)c3c4c(nc5ccccc35)C3=C(C(=O)CCN3)C(=[N+](C)C)C41)NCCC2=O (stereo in doubt; (+)-8) ? 9.7

###

Assay: Metabolic stability in human liver microsomes assessed as intrinsic clearance
Task for the reader: assign each of the following molecules its reported CLint scaled.
Numeric only. Scale: L/h/kg

Any idea what CLint scaled was measured for "C[C@H](Cc1nncn1C)c1cccc(NC(=O)c2ccnc(C3CC3)n2)c1" ? 1.8

Any idea what CLint scaled was measured for "Cc1cc(C(=O)Nc2cccc(C3(Cc4nncn4C)COC3)c2)nc(C2CC2)n1" ? 0.42

###

Test: Metabolic stability in mouse liver microsomes assessed as intrinsic clearance
Task for the reader: assign each of the following compounds its reported CLint scaled.
Numeric only. Scale: L/h/kg

Any idea what CLint scaled was measured for "Cc1cc(C(=O)Nc2cccc([C@H](C)Cc3nncn3C)c2)nc(C2CC2)n1" ? 4.02

Any idea what CLint scaled was measured for "Cc1cc(C(=O)Nc2cccc(C3(Cc4nncn4C)COC3)c2)nc(C2CC2)n1" ? 1.56

Any idea what CLint scaled was measured for "C[C@H](Cc1nncn1C)c1cccc(NC(=O)c2ccnc(C3CC3)n2)c1" ? 4.38

###

Molecular target: UniProtKB Q13191
Assay: Inhibition of CBL-B (unknown origin) by FRET assay
property name: IC50 (µM)
Numeric only. Scale: µM

Any idea what IC50 was measured for "C[C@H](Cc1nncn1C)c1cccc(NC(=O)c2ccnc(C3CC3)n2)c1" ? 0.088

Any idea what IC50 was measured for "C[C@H](Sc1nncn1C)c1cccc(NC(=O)c2ccnc(C3CC3)n2)c1" ? 0.092

Any idea what IC50 was measured for "Cc1cc(C(=O)Nc2cccc([C@H](C)Cc3nncn3C)c2)nc(C2CC2)n1" ? 0.038

###

Biological target: E3 ubiquitin-protein ligase CBL-B (Homo sapiens)
Test: Inhibition of Cbl-b (unknown origin) using fluorophore-labeled probe by TR-FRET based Cb1-b displacement assay
property name: IC50

Any idea what IC50 was measured for "C[C@H](Cc1nncn1C)c1cccc(NC(=O)N2CCOc3cccnc32)c1" ? < 100 nM

###

Target: E3 ubiquitin-protein ligase CBL-B (Homo sapiens, UniProt Q13191)
Sequence (Q13191 whole entry): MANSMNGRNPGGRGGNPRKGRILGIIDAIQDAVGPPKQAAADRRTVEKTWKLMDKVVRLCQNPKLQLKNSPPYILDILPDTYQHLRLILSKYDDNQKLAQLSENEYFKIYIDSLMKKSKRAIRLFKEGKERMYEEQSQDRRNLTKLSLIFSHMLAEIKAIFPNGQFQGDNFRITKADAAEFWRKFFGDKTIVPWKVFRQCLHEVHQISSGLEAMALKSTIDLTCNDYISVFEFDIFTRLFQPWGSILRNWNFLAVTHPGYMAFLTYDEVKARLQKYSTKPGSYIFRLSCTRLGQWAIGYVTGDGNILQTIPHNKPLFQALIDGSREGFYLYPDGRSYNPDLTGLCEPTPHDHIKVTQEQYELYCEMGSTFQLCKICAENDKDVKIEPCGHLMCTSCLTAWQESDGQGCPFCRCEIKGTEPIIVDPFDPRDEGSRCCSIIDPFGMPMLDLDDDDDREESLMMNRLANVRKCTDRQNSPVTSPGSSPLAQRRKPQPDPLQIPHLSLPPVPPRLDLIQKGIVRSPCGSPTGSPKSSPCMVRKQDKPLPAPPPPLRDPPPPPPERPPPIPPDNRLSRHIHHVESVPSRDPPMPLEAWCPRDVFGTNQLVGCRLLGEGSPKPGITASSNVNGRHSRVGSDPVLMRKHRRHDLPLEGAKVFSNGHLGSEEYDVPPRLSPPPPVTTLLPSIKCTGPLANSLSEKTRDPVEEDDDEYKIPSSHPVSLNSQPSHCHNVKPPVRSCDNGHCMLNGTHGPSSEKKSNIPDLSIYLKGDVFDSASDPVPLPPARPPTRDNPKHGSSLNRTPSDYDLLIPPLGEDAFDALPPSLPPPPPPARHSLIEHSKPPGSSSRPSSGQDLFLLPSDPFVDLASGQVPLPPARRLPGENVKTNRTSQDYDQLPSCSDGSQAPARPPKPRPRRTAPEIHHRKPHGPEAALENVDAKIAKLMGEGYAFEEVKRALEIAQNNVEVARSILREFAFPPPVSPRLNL
Assay: Inhibition of Cbl-b (unknown origin) by TR-FRET assay
pIC50: −log10 of the molar value.
Task for the reader: assign each of the following molecules its reported pIC50.

Any idea what pIC50 was measured for "Cn1cnnc1[C@H](c1cccc(-n2cc3c(C(F)(F)F)cc(CN4CCC[C@@](C)(O)C4)cn3c2=O)c1)C1CCC1" ? > 4.00

Any idea what pIC50 was measured for "Cn1cnnc1CC1(c2cccc(-n3cc4c(C(F)(F)F)cc(CN5CCC6(CC6)C5)cn4c3=O)c2)COC1" ? > 4.00

From: ChEMBL document CHEMBL5537167
